Target: Full length human recombinant HDAC6 protein (Homo sapiens, UniProt Q9UBN7)
Assay: In vitro histone deacetylase assay: enzymatic HDAC6 electrophoretic mobility shift assay
Conditions: 1 nM enzyme, 2 μM peptide substrate RHKK(Ac)-NH2, 25° C., 12 concentrations; read-out: Inhibitory Concentration (IC50) Values against HDAC6, Activity Range
pIC50: −log10 of the molar value.
endpoint: pIC50

// known answers, use as guide
compound	recorded-measurement
CC(C(=O)N1CCOc2cc(C(=O)NO)ccc2C1)c1cccnc1 (stereo not drawn)	≥ 7.00
C[C@H]1COc2cc(C(=O)NO)ccc2CN1C(=O)[C@@]1(C)CCOC1	≥ 7.00
CCC(=O)N1Cc2ccc(C(=O)NO)cc2OC[C@@H]1C	≥ 7.00

What does the record list as pIC50 for O=C(NO)c1ccc2c(c1)OCCN(C(=O)C1(Oc3ccccc3)CC1)C2 ?
6.30 to 7.00

What does the record list as pIC50 for CC(C)C1OCCC1C(=O)N1Cc2ccc(C(=O)NO)cc2OC[C@@H]1C (stereo partly drawn) ?
≥ 7.00

What does the record list as pIC50 for C[C@H]1COc2cc(C(=O)NO)ccc2CN1C(=O)C1CCN(C=O)CC1 ?
≥ 7.00

----------
# pIC50 annotations
Biological target: Full length human recombinant HDAC6 protein (Homo sapiens, UniProt Q9UBN7)
Sequence (Q9UBN7 1-1215): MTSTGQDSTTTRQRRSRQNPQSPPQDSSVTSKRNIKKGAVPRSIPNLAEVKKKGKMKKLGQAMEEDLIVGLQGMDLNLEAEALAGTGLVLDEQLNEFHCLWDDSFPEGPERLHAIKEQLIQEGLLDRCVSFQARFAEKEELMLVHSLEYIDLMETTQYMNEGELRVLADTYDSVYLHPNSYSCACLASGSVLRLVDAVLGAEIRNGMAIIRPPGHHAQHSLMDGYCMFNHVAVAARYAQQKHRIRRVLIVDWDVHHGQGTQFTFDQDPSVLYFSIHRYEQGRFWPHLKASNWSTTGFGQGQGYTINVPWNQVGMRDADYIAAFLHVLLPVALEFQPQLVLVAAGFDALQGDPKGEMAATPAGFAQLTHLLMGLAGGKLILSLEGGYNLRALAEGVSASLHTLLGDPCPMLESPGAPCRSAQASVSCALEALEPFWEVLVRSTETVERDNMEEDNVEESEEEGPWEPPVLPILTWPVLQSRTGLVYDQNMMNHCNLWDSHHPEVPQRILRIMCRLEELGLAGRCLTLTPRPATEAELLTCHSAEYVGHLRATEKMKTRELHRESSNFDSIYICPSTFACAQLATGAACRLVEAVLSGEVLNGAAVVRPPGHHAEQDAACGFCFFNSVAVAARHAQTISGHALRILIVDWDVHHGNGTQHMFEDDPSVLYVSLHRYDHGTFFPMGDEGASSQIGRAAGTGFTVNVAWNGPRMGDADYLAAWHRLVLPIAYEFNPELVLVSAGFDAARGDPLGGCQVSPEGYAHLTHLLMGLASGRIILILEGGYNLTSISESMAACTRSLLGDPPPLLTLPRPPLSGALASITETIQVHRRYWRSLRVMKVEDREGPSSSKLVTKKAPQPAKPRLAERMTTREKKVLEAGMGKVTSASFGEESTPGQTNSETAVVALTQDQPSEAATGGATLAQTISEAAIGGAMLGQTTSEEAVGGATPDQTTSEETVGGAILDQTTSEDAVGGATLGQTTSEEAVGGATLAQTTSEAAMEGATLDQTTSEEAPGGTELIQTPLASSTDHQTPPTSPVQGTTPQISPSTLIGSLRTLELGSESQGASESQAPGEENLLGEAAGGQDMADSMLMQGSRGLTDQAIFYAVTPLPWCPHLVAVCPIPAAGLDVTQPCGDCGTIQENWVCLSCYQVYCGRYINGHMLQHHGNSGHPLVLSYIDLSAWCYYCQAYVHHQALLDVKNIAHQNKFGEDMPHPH
Assay: In vitro histone deacetylase assay: enzymatic HDAC6 electrophoretic mobility shift assay
Conditions: 1 nM enzyme, 2 μM peptide substrate RHKK(Ac)-NH2, 25° C., 12 concentrations; read-out: Inhibitory Concentration (IC50) Values against HDAC6, Activity Range
pIC50: −log10 of the molar value.

What does the record list as pIC50 for O=C(NO)c1ccc2c(c1)OCCN(C(=O)c1ccc(N3CCOCC3)cc1)C2 ?
6.30 to 7.00

What does the record list as pIC50 for C[C@@H]1c2cc(C(=O)NO)ccc2OCCN1C(=O)C1CCOCC1 ?
≥ 7.00

What does the record list as pIC50 for CC1(C)CC(C(=O)N2CCOc3cc(C(=O)NO)ccc3C2)CCO1 (centres unmarked) ?
6.30 to 7.00

What does the record list as pIC50 for O=C(NO)c1ccc2c(c1)OCCN(C(=O)COc1cccc(Cl)c1)C2 ?
6.30 to 7.00

What does the record list as pIC50 for COC1CCC(C(=O)N2CCOc3cc(C(=O)NO)ccc3C2)CC1 (centres unmarked) ?
≥ 7.00

----------
Molecular target: Full length human recombinant HDAC6 protein (Homo sapiens)
Test: In vitro histone deacetylase assay: enzymatic HDAC6 electrophoretic mobility shift assay
Conditions: 1 nM enzyme, 2 μM peptide substrate RHKK(Ac)-NH2, 25° C., 12 concentrations; read-out: Inhibitory Concentration (IC50) Values against HDAC6, Activity Range
Experimental: The enzymatic HDAC6 assay was performed using electrophoretic mobility shift assay. […] The terminated assay plates were analyzed on LabChip® 3000 microfluidic electrophoresis instrument (Perkin Elmer/Caliper Life Sciences). The fluorescence intensity of the electrophoretically separated de-acetylated product and substrate peptide was measured. […] Percent inhibition (Pinh) is determined using the following equation: […]
pIC50: −log10 of the molar value.
# pIC50 annotations

compound	recorded-measurement
O=C(NO)c1ccc2c(c1)OCCN(C(=O)C1CCC(F)(F)C1)C2 (stereo not drawn)	≥ 7.00
O=C(NO)c1ccc2c(c1)OCCN(C(=O)C1CCC3(CCNC3)CC1)C2 (stereo not drawn)	≥ 7.00

What does the record list as pIC50 for O=C(NO)c1cnc2c(n1)OCCN(C(=O)C1CCOCC1)C2 ?
6.30 to 7.00

What does the record list as pIC50 for O=C(NO)c1ccc2c(c1)OCCN(C(=O)C1CC13CCCNC3)C2 (stereo not drawn) ?
< 6.30

What does the record list as pIC50 for CC(C)(C)OC(=O)N1CCC2(CCCC2C(=O)N2CCOc3cc(C(=O)NO)ccc3C2)C1 (stereo not drawn) ?
6.30 to 7.00

What does the record list as pIC50 for O=C(NO)c1ccc2c(c1)OCCN(C(=O)C1CC(F)(F)C1)C2 ?
6.30 to 7.00

What does the record list as pIC50 for COC(C)(C)C(=O)N1Cc2ccc(C(=O)NO)cc2OC[C@@H]1C ?
≥ 7.00

What does the record list as pIC50 for CC(C)(C)OC(C(=O)N1CCOc2cc(C(=O)NO)ccc2C1)c1ccccc1 (stereo not drawn) ?
6.30 to 7.00

What does the record list as pIC50 for O=C(NO)c1ccc2c(c1)OCCN(C(=O)C(OCC(F)(F)F)c1ccccc1)C2 (stereo not drawn) ?
6.30 to 7.00

What does the record list as pIC50 for C[C@H]1c2ccc(C(=O)NO)cc2OCCN1C(=O)[C@@H]1CCOC1 ?
≥ 7.00

What does the record list as pIC50 for C[C@H]1COc2cc(C(=O)NO)ccc2CN1C(=O)C1CC2CCC(C1)O2 (stereo partly drawn) ?
≥ 7.00

----------
Target: Full length human recombinant HDAC6 protein (Homo sapiens, UniProt Q9UBN7)
Sequence (Q9UBN7 1-1215): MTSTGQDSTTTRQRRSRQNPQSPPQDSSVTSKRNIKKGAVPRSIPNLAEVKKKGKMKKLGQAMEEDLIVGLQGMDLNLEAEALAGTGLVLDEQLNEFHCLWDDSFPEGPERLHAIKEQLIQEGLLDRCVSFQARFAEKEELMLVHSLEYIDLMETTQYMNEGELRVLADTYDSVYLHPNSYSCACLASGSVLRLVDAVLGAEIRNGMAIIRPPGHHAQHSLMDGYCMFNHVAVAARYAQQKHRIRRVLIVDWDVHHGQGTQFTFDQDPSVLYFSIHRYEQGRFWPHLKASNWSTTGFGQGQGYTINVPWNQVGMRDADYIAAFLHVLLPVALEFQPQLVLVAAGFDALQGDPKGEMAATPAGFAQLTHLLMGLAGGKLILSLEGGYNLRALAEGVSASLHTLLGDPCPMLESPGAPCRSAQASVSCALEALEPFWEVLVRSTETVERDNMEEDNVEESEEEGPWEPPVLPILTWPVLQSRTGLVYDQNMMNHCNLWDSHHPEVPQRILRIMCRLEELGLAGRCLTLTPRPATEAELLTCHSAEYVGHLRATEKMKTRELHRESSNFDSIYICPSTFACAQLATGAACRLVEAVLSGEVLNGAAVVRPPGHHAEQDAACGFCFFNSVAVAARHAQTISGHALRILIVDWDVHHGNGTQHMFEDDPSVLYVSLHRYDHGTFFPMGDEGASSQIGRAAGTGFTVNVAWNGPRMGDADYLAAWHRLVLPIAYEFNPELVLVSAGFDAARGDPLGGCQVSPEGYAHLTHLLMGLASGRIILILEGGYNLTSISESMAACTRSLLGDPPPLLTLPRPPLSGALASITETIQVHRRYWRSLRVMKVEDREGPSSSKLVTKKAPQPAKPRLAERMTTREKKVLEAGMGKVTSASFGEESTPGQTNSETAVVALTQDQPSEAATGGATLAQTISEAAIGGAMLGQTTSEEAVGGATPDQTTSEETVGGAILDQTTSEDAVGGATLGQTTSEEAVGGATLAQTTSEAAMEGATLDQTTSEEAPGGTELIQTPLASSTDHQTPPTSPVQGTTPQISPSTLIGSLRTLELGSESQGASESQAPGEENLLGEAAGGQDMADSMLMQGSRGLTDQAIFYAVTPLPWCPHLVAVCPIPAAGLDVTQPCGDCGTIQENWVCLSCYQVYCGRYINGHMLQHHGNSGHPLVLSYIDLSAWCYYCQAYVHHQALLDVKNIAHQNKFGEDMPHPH
Assay: In vitro histone deacetylase assay: enzymatic HDAC6 electrophoretic mobility shift assay
Settings: 1 nM enzyme, 2 μM peptide substrate RHKK(Ac)-NH2, 25° C., 12 concentrations; read-out: Inhibitory Concentration (IC50) Values against HDAC6, Activity Range
pIC50: −log10 of the molar value.
endpoint: pIC50

compound	pIC50
O=C(NO)c1ccc2c(c1)OCCN(C(=O)C(c1ccccc1)N1CCCCC1=O)C2 (stereo not drawn)	6.30 to 7.00
C[C@H]1COc2cc(C(=O)NO)ccc2CN1C(=O)[C@]1(C)CCOC1	≥ 7.00
CC(C)(C(=O)N1CCOc2cc(C(=O)NO)ccc2C1)C1CCCCC1	6.30 to 7.00

What does the record list as pIC50 for CO[C@H]1C[C@@H](C(=O)N2Cc3ccc(C(=O)NO)cc3OC[C@@H]2C)C1 ?
≥ 7.00

What does the record list as pIC50 for CC(=O)N1Cc2ccc(C(=O)NO)cc2O[C@H](C)C1 ?
< 6.30

What does the record list as pIC50 for C[C@H]1COc2cc(C(=O)NO)ccc2CN1C(=O)C1CCC(C)(C)O1 (stereo partly drawn) ?
≥ 7.00

What does the record list as pIC50 for COCC1(C(=O)N2CCOc3cc(C(=O)NO)ccc3C2)CC1 ?
≥ 7.00

What does the record list as pIC50 for COc1ccc(C(=O)N2CC(=O)Nc3ccc(C(=O)NO)cc3C2)cc1 ?
< 6.30

What does the record list as pIC50 for COC1CCC(C(=O)N2Cc3ccc(C(=O)NO)cc3OC[C@@H]2C)CC1 (single isomer, unassigned) ?
≥ 7.00

What does the record list as pIC50 for O=C(NO)c1ccc2c(c1)OCCN(C(=O)C1(c3cccc(C(F)(F)F)c3)CC1)C2 ?
≥ 7.00

What does the record list as pIC50 for O=C(NO)c1ccc2c(c1)OCCN(C(=O)C1(Cn3ccnc3)CC1)C2 ?
≥ 7.00

All values here come from patent US11891365B2.
